# measurement_notes: Selectivity index, ratio of TC50 for MDCK cells to IC50 for influenza A virus H1N1
# Assay type: toxicity, cell-based
# test_context: dog, read-out: Selectivity Index
Reported selectivity ratio values for a set of compounds

Worked cases, selectivity ratio given:
- structure_smiles: "C=C(C(=O)OCCCCCCCCCCN1CCN(c2ccccc2)CC1)[C@@H]1CC[C@H](C)[C@@H]2CC(=O)C(C)=C2C1"
  selectivity ratio: 188
- structure_smiles: "C=C(C(=O)OCCCCCCBr)[C@@H]1CC[C@H](C)[C@@H]2CC(=O)C(C)=C2C1"
  selectivity ratio: 11.8
- structure_smiles: "C=C(C(=O)OCCCn1cncn1)[C@@H]1CC[C@H](C)[C@@H]2CC(=O)C(C)=C2C1"
  selectivity ratio: 13

Now consider a different compound.
selectivity ratio in this record for C=C(C(=O)OCCCCBr)[C@@H]1CC[C@H](C)[C@@H]2CC(=O)C(C)=C2C1 : 5.6

###

# measurement_notes: Cytotoxicity against MDCK cells
# Type: cell-based, Canis lupus familiaris
# test_context: dog, read-out: TC50 (the source's name)
Could you mark each record 1 if its CC50 falls strictly under 400 µM, and -1 if it equals or exceeds it?

Example results:
- structure_smiles: "C=C(C(=O)OCCCCCCCCBr)[C@@H]1CC[C@H](C)[C@@H]2CC(=O)C(C)=C2C1"
  class: 1
- structure_smiles: "C=C(C(=O)OCCCCN1CCN(c2ccccc2)CC1)[C@@H]1CC[C@H](C)[C@@H]2CC(=O)C(C)=C2C1"
  class: -1
- structure_smiles: "C=C(C(=O)OCCBr)[C@@H]1CC[C@H](C)[C@@H]2CC(=O)C(C)=C2C1"
  class: -1

Strictly below 400 µM in CC50? C=C(C(=O)OCCCN1CCN(c2ccccc2)CC1)[C@@H]1CC[C@H](C)[C@@H]2CC(=O)C(C)=C2C1
1

Take the compound C=C(C(=O)OCCCCCN1CCN(C)CC1)[C@@H]1CC[C@H](C)[C@@H]2CC(=O)C(C)=C2C1 and say whether its CC50 is less than 400 µM.
1

is_below(CC50, 400 µM) for C=C(C(=O)OCCCCBr)[C@@H]1CC[C@H](C)[C@@H]2CC(=O)C(C)=C2C1 ?
-1

Please state whether CC50 is below 400 µM for C=C(C(=O)OCCCCN1CCN(C)CC1)[C@@H]1CC[C@H](C)[C@@H]2CC(=O)C(C)=C2C1
-1

I wonder whether C=C(C(=O)OCCCCCCCCCCN1CCN(C)CC1)[C@@H]1CC[C@H](C)[C@@H]2CC(=O)C(C)=C2C1 has CC50 below 400 µM. Can you tell?
1

###

# measurement_notes: Cytotoxicity against MDCK cells
# Assay type: cell-based, Canis lupus familiaris
# test_context: dog, read-out: TC50 (the source's name)
test_readout: CC50 (µM)
Answer format: numeric, µM implied, no suffix.

C=C(C(=O)OCCCCCCCCN1CCN(c2ccccc2)CC1)[C@@H]1CC[C@H](C)[C@@H]2CC(=O)C(C)=C2C1 yielded CC50 of 333

Sample NC(=O)c1ncn([C@@H]2O[C@H](CO)[C@@H](O)[C@H]2O)n1 ; CC50 observed: 1280

get_value(item= C=C(C(=O)OCCCCn1cncn1)[C@@H]1CC[C@H](C)[C@@H]2CC(=O)C(C)=C2C1 , readout=CC50) returns 386

Kindly note the recorded CC50 for C=C(C(=O)OCCCCCCBr)[C@@H]1CC[C@H](C)[C@@H]2CC(=O)C(C)=C2C1 , which is 469
